# experimental-details: Pharmacokinetics in humans, MRTX1133 formulation, oral, single and multiple doses
# Type: in vivo
# experimental-parameters: human, plasma, po, 200 mg, multiple oral doses of 200 mg BID, fasted; 12 h; mean of subjects; read-out: Plasma concentration, Mean
measure: concentration at 12 h

**Query** Which concentration at 12 h value belongs to C#Cc1c(F)ccc2cc(O)cc(-c3ncc4c(N5C[C@H]6CC[C@@H](C5)N6)nc(OC[C@@]56CCCN5C[C@H](F)C6)nc4c3F)c12 ?
**Result** 2.46 ng/mL

---

# experimental-details: Pharmacokinetics in humans, MRTX1133 formulation, oral, single and multiple doses
# Type: in vivo
# experimental-parameters: human, plasma, po, 200 mg, single oral dose of 200 mg, fasted; 1.5 h; mean of subjects; read-out: Plasma concentration, Mean
measure: concentration at 1.5 h
Remember to put the unit after the number in your answer.

**Query** Which concentration at 1.5 h value belongs to C#Cc1c(F)ccc2cc(O)cc(-c3ncc4c(N5C[C@H]6CC[C@@H](C5)N6)nc(OC[C@@]56CCCN5C[C@H](F)C6)nc4c3F)c12 ?
**Result** 39 ng/mL

---

# experimental-details: Pharmacokinetics in humans, MRTX1133 formulation, oral, single and multiple doses
# Assay type: in vivo
# experimental-parameters: human, plasma, po, 400 mg, multiple oral doses of 400 mg BID, fasted; 2 h; mean of subjects; read-out: Plasma concentration, Mean
measure: concentration at 2 h

**Query** Which concentration at 2 h value belongs to C#Cc1c(F)ccc2cc(O)cc(-c3ncc4c(N5C[C@H]6CC[C@@H](C5)N6)nc(OC[C@@]56CCCN5C[C@H](F)C6)nc4c3F)c12 ?
**Result** 48.5 ng/mL

---

# experimental-details: Pharmacokinetics in humans, MRTX1133 formulation, oral, single and multiple doses
# Format: in vivo
# experimental-parameters: human, plasma, po, 400 mg, single oral dose of 400 mg with a low-fat meal; 24 h; mean of subjects; read-out: Plasma concentration, Mean
measure: concentration at 24 h

**Query** Which concentration at 24 h value belongs to C#Cc1c(F)ccc2cc(O)cc(-c3ncc4c(N5C[C@H]6CC[C@@H](C5)N6)nc(OC[C@@]56CCCN5C[C@H](F)C6)nc4c3F)c12 ?
**Result** 7.59 ng/mL

---

# experimental-details: Pharmacokinetics in humans, MRTX1133 formulation, oral, single and multiple doses
# Format: in vivo
# experimental-parameters: human, plasma, po, 400 mg, single oral dose of 400 mg with a low-fat meal; 5 h; mean of subjects
# Experimental: The pharmacokinetics [PK] of the MRTX1133 formulation after oral administration has been evaluated in 25 subjects across 3 escalating dose frequencies under fasting conditions (200 mg twice daily [BID], 400 mg BID, and 800 mg BID), as well as evaluation of 400 mg BID when administered with a low-fat meal (i.e., under fed conditions). The mean (+standard deviation) single-dose and multiple-dose pharmacokinetic profiles of the evaluated doses are presented in FIG. 9 and FIG. 10, respectively. […]
measure: concentration at 5 h (ng/mL)
// note: answer is a bare numeric in ng/mL

**Query** Which concentration at 5 h value belongs to C#Cc1c(F)ccc2cc(O)cc(-c3ncc4c(N5C[C@H]6CC[C@@H](C5)N6)nc(OC[C@@]56CCCN5C[C@H](F)C6)nc4c3F)c12 ?
**Result** 53.9

---

# experimental-details: Pharmacokinetics in humans, MRTX1133 formulation, oral, single and multiple doses
# Type: in vivo
# experimental-parameters: human, plasma, po, 400 mg, single oral dose of 400 mg with a low-fat meal; geometric mean of subjects; read-out: Cmax, Geo Mean
measure: Cmax (ng/mL)
// note: answer is a bare numeric in ng/mL

**Query** Which Cmax value belongs to C#Cc1c(F)ccc2cc(O)cc(-c3ncc4c(N5C[C@H]6CC[C@@H](C5)N6)nc(OC[C@@]56CCCN5C[C@H](F)C6)nc4c3F)c12 ?
**Result** 66.6

---

# experimental-details: Pharmacokinetics in humans, MRTX1133 formulation, oral, single and multiple doses
# Assay type: in vivo
# experimental-parameters: human, plasma, po, 400 mg, single oral dose of 400 mg, fasted; 4 h; mean of subjects; read-out: Plasma concentration, Mean
measure: concentration at 4 h (ng/mL)
// note: answer is a bare numeric in ng/mL

**Query** Which concentration at 4 h value belongs to C#Cc1c(F)ccc2cc(O)cc(-c3ncc4c(N5C[C@H]6CC[C@@H](C5)N6)nc(OC[C@@]56CCCN5C[C@H](F)C6)nc4c3F)c12 ?
**Result** 64.4

---

# experimental-details: Pharmacokinetics in humans, MRTX1133 formulation, oral, single and multiple doses
# Type: in vivo
# experimental-parameters: human, plasma, po, 400 mg, multiple oral doses of 400 mg BID with a low-fat meal; 0 h; mean of subjects; read-out: Plasma concentration, Mean
measure: concentration at 0 h (ng/mL)
// note: answer is a bare numeric in ng/mL

**Query** Which concentration at 0 h value belongs to C#Cc1c(F)ccc2cc(O)cc(-c3ncc4c(N5C[C@H]6CC[C@@H](C5)N6)nc(OC[C@@]56CCCN5C[C@H](F)C6)nc4c3F)c12 ?
**Result** 16.7

---

# experimental-details: Pharmacokinetics in humans, MRTX1133 formulation, oral, single and multiple doses
# Format: in vivo
# experimental-parameters: human, plasma, po, 200 mg, multiple oral doses of 200 mg BID, fasted; 8 h; mean of subjects; read-out: Plasma concentration, Mean
measure: concentration at 8 h (ng/mL)
// note: answer is a bare numeric in ng/mL

**Query** Which concentration at 8 h value belongs to C#Cc1c(F)ccc2cc(O)cc(-c3ncc4c(N5C[C@H]6CC[C@@H](C5)N6)nc(OC[C@@]56CCCN5C[C@H](F)C6)nc4c3F)c12 ?
**Result** 2.79

---

# experimental-details: Pharmacokinetics in humans, MRTX1133 formulation, oral, single and multiple doses
# Type: in vivo
# experimental-parameters: human, plasma, po, 400 mg, single oral dose of 400 mg with a low-fat meal; geometric mean of subjects; read-out: AUC0-last, Geo Mean
measure: AUC(0-t) (ng·h/mL)
// note: answer is a bare numeric in ng·h/mL

**Query** Which AUC(0-t) value belongs to C#Cc1c(F)ccc2cc(O)cc(-c3ncc4c(N5C[C@H]6CC[C@@H](C5)N6)nc(OC[C@@]56CCCN5C[C@H](F)C6)nc4c3F)c12 ?
**Result** 277

---

# experimental-details: Pharmacokinetics in humans, MRTX1133 formulation, oral, single and multiple doses
# Assay type: in vivo
# experimental-parameters: human, plasma, po, 400 mg, single oral dose of 400 mg with a low-fat meal; 8 h; mean of subjects; read-out: Plasma concentration, Mean
measure: concentration at 8 h (ng/mL)
// note: answer is a bare numeric in ng/mL

**Query** Which concentration at 8 h value belongs to C#Cc1c(F)ccc2cc(O)cc(-c3ncc4c(N5C[C@H]6CC[C@@H](C5)N6)nc(OC[C@@]56CCCN5C[C@H](F)C6)nc4c3F)c12 ?
**Result** 20.4

---

# experimental-details: Pharmacokinetics in humans, MRTX1133 formulation, oral, single and multiple doses
# Assay type: in vivo
# experimental-parameters: human, plasma, po, 400 mg, multiple oral doses of 400 mg BID with a low-fat meal; 3 h; mean of subjects
measure: concentration at 3 h (ng/mL)
// note: answer is a bare numeric in ng/mL

**Query** Which concentration at 3 h value belongs to C#Cc1c(F)ccc2cc(O)cc(-c3ncc4c(N5C[C@H]6CC[C@@H](C5)N6)nc(OC[C@@]56CCCN5C[C@H](F)C6)nc4c3F)c12 ?
**Result** 55.1

---

# experimental-details: Pharmacokinetics in humans, MRTX1133 formulation, oral, single and multiple doses
# Assay type: in vivo
# experimental-parameters: human, plasma, po, 200 mg, single oral dose of 200 mg, fasted; geometric mean of subjects; read-out: AUC0-inf, Geo Mean
measure: AUC0-inf (µg·h/mL)
// note: answer is a bare numeric in µg·h/mL

**Query** Which AUC0-inf value belongs to C#Cc1c(F)ccc2cc(O)cc(-c3ncc4c(N5C[C@H]6CC[C@@H](C5)N6)nc(OC[C@@]56CCCN5C[C@H](F)C6)nc4c3F)c12 ?
**Result** 0.165

---

# experimental-details: Pharmacokinetics in humans, MRTX1133 formulation, oral, single and multiple doses
# Assay type: in vivo
# experimental-parameters: human, plasma, po, 400 mg, single oral dose of 400 mg, fasted; median of subjects (footnote b); read-out: Tmax, Median
measure: Tmax (h)
// note: answer is a bare numeric in h

**Query** Which Tmax value belongs to C#Cc1c(F)ccc2cc(O)cc(-c3ncc4c(N5C[C@H]6CC[C@@H](C5)N6)nc(OC[C@@]56CCCN5C[C@H](F)C6)nc4c3F)c12 ?
**Result** 2
